As shown below, each of these variants has a reported AIRE transcriptional activation functional score value.
B1: library; numbered along this chain (parent)
chain: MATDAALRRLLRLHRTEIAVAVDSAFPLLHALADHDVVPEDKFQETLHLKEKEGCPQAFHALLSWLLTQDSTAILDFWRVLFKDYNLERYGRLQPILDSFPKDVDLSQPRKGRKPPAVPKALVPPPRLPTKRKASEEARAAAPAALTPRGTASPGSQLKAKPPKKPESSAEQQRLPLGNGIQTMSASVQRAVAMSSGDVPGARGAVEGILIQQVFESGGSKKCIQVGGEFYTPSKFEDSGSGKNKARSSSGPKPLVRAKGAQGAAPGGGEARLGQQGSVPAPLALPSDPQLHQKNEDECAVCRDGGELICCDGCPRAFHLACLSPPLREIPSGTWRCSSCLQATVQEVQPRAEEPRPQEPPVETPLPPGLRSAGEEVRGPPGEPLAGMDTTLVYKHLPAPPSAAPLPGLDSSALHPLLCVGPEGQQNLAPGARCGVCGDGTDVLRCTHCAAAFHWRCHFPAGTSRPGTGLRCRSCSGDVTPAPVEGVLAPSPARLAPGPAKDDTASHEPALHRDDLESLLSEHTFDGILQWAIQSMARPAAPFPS

variants of: B1; test: AIRE transcriptional activation functional score (insulin promoter-GFP; nonsense median 0, synonymous median 1) (normalised score); higher = higher AIRE activity (more reporter activation); conditions: with insulin promoter-GFP reporter in HEK293
// no unit, no text: just the number

mut | assay.result
I533E | -0.386
V393G | 1.28
E485Q | 0.397
Q57R | 0.643
T183H | 0.652

Query: Dear colleague, please send me the reported AIRE transcriptional activation functional score for `P289E` when you can.
Result: 0.531

Query: Dear colleague, please send me the reported AIRE transcriptional activation functional score for `F43C` when you can.
Result: 0.163

Query: Dear colleague, please send me the reported AIRE transcriptional activation functional score for `A399P` when you can.
Result: 1.38

Query: Dear colleague, please send me the reported AIRE transcriptional activation functional score for `Q94D` when you can.
Result: 0.228

Query: Dear colleague, please send me the reported AIRE transcriptional activation functional score for `D288P` when you can.
Result: 1.15
